Molecular target: mu opiate receptor (MOR) (Rattus norvegicus, UniProt P33535)
Construct: from tissue; host or cells: striatum (membrane preparation)
Sequence (P33535 whole entry): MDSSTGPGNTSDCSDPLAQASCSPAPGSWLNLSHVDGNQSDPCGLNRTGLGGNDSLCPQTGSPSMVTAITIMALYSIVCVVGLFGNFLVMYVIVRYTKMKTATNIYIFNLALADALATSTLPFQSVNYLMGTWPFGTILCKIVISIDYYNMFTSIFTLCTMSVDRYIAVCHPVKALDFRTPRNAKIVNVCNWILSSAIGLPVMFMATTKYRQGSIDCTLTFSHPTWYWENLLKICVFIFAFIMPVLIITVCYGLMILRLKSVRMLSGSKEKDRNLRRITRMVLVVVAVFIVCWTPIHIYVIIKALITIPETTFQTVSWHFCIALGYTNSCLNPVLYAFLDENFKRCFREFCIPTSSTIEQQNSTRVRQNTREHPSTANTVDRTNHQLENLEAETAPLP
Format: biochemical
Measurement Kind: % DAMGO (0.1 μM) (%)

[
  {
    "Molecule": "CC1CCC(C(C)C)C(OCC(O)Cn2cccc2)C1 (stereo not drawn) [Compound A0038]",
    "Measurement Kind": "% DAMGO (0.1 μM)",
    "Unit String": "%",
    "Recorded Value": 90.1
  },
  {
    "Molecule": "CC1CCC(C(C)C)C(OCC(O)CN2CCN(CCCN3CCOCC3)CC2)C1 (stereo not drawn) [Compound A0026]",
    "Measurement Kind": "% DAMGO (0.1 μM)",
    "Unit String": "%",
    "Recorded Value": 79.7
  },
  {
    "Molecule": "Cc1ccc(S(=O)(=O)N2CCC3(CC2)OCCN3S(=O)(=O)c2ccc(C)cc2)cc1 [Compound C0001]",
    "Measurement Kind": "% DAMGO (0.1 μM)",
    "Unit String": "%",
    "Recorded Value": 75.2
  },
  {
    "Molecule": "CCN1CCC2(CC1)OCCN2S(=O)(=O)c1ccc(C(C)=O)cc1 [Compound C0094M]",
    "Measurement Kind": "% DAMGO (0.1 μM)",
    "Unit String": "%",
    "Recorded Value": 100.2
  },
  {
    "Molecule": "CC1CCC(C(C)C)C(OCC(O)CN2CCCCCC2)C1 (stereo not drawn) [Compound A0013]",
    "Measurement Kind": "% DAMGO (0.1 μM)",
    "Unit String": "%",
    "Recorded Value": 57.8
  },
  {
    "Molecule": "CN1CCC2(CC1)OCCN2S(=O)(=O)c1ccc(S(C)(=O)=O)cc1 [Compound C0106M]",
    "Measurement Kind": "% DAMGO (0.1 μM)",
    "Unit String": "%",
    "Recorded Value": 102.5
  },
  {
    "Molecule": "COc1ccccc1CC(=O)CC1c2c(cc3c(c2OC)OCO3)CC[N+]1(C)C (stereo not drawn) [Compound 5009]",
    "Measurement Kind": "% DAMGO (0.1 μM)",
    "Unit String": "%",
    "Recorded Value": 66.9
  },
  {
    "Molecule": "OC(COc1ccc(Br)c(F)c1)CN1CCSCC1 (stereo not drawn) [Compound A0059]",
    "Measurement Kind": "% DAMGO (0.1 μM)",
    "Unit String": "%",
    "Recorded Value": 63.5
  },
  {
    "Molecule": "COc1cccc(CC(=O)CC2c3c(cc4c(c3OC)OCO4)CC[N+]2(C)C)c1OC (stereo not drawn) [Compound B0038]",
    "Measurement Kind": "% DAMGO (0.1 μM)",
    "Unit String": "%",
    "Recorded Value": 94.2
  },
  {
    "Molecule": "Cc1cccc(OCC(O)CN2CC(C)OC(C)C2)c1 (stereo not drawn) [Compound A0030]",
    "Measurement Kind": "% DAMGO (0.1 μM)",
    "Unit String": "%",
    "Recorded Value": 75.5
  },
  {
    "Molecule": "COc1ccc(S(=O)(=O)N2CCC3(NCCO3)C3CCCCC32)cc1 (stereo not drawn) [Compound C0144M-2]",
    "Measurement Kind": "% DAMGO (0.1 μM)",
    "Unit String": "%",
    "Recorded Value": 108.3
  },
  {
    "Molecule": "O=C(c1ccc([N+](=O)[O-])cc1)N1CCC2(CC1)OCCN2C(=O)c1ccc([N+](=O)[O-])cc1 [Compound C0032]",
    "Measurement Kind": "% DAMGO (0.1 μM)",
    "Unit String": "%",
    "Recorded Value": 92.8
  },
  {
    "Molecule": "COc1c2c(cc3c1C(CC(=O)Cc1ccc(C#N)cc1)[N+](C)(C)CC3)OCO2 (stereo not drawn) [Compound B0012]",
    "Measurement Kind": "% DAMGO (0.1 μM)",
    "Unit String": "%",
    "Recorded Value": 97.8
  },
  {
    "Molecule": "COc1ccc(S(=O)(=O)N2CCC3(CC2)NCCO3)cc1 [Compound C0026]",
    "Measurement Kind": "% DAMGO (0.1 μM)",
    "Unit String": "%",
    "Recorded Value": 107.7
  },
  {
    "Molecule": "COc1ccc(CCC(=O)CC2c3c(cc4c(c3OC)OCO4)CCN2C)cc1 (stereo not drawn) [Compound B0047]",
    "Measurement Kind": "% DAMGO (0.1 μM)",
    "Unit String": "%",
    "Recorded Value": 106.3
  },
  {
    "Molecule": "COc1ccc(S(=O)(=O)N2CCOC23CCN(CC2CC2)CC3)cc1 [Compound C0090M]",
    "Measurement Kind": "% DAMGO (0.1 μM)",
    "Unit String": "%",
    "Recorded Value": 137.7
  },
  {
    "Molecule": "CC1CCC(C(C)C)C(OCC(O)CN(C(C)C)C(C)C)C1 (stereo not drawn) [Compound A0037]",
    "Measurement Kind": "% DAMGO (0.1 μM)",
    "Unit String": "%",
    "Recorded Value": 90.7
  },
  {
    "Molecule": "CC1CN(CC(O)COc2cccc(C(F)(F)F)c2)CC(C)O1 (stereo not drawn) [Compound A0051]",
    "Measurement Kind": "% DAMGO (0.1 μM)",
    "Unit String": "%",
    "Recorded Value": 148.0
  }
]
